target: Exportin-1 (Homo sapiens, UniProt O14980); test: Competitive inhibition of human CRM1 assessed as dissociation constant incubated in presence of RanGTP and IAF-conjugated protein kinase inhibitor peptide by MST assay
Sequence (O14980 whole entry): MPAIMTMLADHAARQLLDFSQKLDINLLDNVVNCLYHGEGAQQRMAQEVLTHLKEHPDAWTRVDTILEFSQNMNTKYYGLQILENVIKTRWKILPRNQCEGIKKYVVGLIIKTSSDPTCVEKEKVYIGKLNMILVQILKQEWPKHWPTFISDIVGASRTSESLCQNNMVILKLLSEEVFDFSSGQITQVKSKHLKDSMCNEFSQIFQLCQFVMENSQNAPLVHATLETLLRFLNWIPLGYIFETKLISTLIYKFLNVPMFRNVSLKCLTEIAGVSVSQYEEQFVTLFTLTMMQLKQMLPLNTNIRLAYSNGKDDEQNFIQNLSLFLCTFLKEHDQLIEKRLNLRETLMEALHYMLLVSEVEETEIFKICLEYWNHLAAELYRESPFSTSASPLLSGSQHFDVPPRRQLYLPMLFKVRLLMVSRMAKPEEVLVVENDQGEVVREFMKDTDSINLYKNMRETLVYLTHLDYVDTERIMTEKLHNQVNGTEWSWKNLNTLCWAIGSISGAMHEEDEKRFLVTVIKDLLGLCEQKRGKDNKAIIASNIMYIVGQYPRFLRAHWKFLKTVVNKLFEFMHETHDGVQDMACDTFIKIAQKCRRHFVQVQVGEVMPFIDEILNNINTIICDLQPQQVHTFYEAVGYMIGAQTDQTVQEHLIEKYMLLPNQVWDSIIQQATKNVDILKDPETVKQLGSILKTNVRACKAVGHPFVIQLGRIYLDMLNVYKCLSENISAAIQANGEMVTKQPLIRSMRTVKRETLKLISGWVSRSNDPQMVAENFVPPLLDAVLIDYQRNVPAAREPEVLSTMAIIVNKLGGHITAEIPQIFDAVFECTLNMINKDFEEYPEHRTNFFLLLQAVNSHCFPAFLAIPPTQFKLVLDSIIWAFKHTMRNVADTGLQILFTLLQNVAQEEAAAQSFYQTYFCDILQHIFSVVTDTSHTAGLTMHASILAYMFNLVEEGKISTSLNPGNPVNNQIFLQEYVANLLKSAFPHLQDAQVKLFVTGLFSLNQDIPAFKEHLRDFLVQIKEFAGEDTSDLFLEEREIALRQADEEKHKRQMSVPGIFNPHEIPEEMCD
measurement name: Kd

What value of measured Kd is listed for COc1cc(C(=O)NS(=O)(=O)c2ccccc2C)ccc1Cc1cn(C)c2ccc(NC(=O)OC3CCCC3)cc12 [ZAFIRLUKAST] ? 10 µM
